recorded metric: melting point

{"columns": ["compound", "reported"],
 "data": [
  ["O=C1NCC(CCc2ccccc2F)O1 (stereo unspecified)", "73 to 74 °C"],
  ["CNC(=O)N[C@H]1CC[C@H](CCN2CCN(c3ccc(OC)c(Cl)c3Cl)CC2)CC1", "237 to 241 °C"],
  ["O=C1OC(CCCCN2CCN(c3ccccc3O)CC2)CN1c1ccccc1 (stereo unspecified)", "123 to 129 °C"],
  ["CCC1(c2ccccc2)Cc2cc(OC)c(Cl)c(Cl)c2C1=O (stereo unspecified)", "139 to 141 °C"],
  ["COc1nsc(SCOCC#CI)c1C#N", "124 to 125 °C"],
  ["COc1cc(OC)c(-c2cccs2)cc1/C=C/C(=O)c1ccc(S(=O)(=O)Nc2nccs2)cc1", "220 to 221 °C"],
  ["CCCCN(CCCC)p1oc2c(C(C)(C)C)cc(C(C)(C)C)cc2c2cc(C(C)(C)C)cc(C(C)(C)C)c2o1", "140 °C"],
  ["OC1N=C(c2ccccc2Cl)c2cc(Cl)ccc2-c2ncncc21 (stereo unspecified)", "105 to 117 °C"],
  ["O=C1CCN(c2cc(Cl)ncn2)CC1", "100 to 103 °C"],
  ["C=CCCCCCCCCN=C=O", "94 to 97 °C"],
  ["OCCCc1ccc(OCc2ccco2)cc1Oc1ncc(C(F)(F)F)cc1Cl", "68 to 68.6 °C"],
  ["CC(C)(C)c1cc(Cc2nc(S)n[nH]2)cc(C(C)(C)C)c1O", "184 to 185 °C"],
  ["CCOC(=O)N(C)S(=O)(=O)c1cc2c(c(Cl)c1Cl)OC(C(=O)O)C2 (stereo unspecified)", "199 to 201 °C"],
  ["Cn1c(CO)nc([N+](=O)[O-])c1C#N", "122 to 124 °C"],
  ["CC(c1ccc(Cl)cc1)N(O)C(N)=O (stereo unspecified)", "125 to 128 °C"],
  ["O=c1ccn([C@@H]2C[C@H](O)[C@@H](O)[C@H]2O)c(=O)[nH]1 (racemic)", "229 to 230 °C"],
  ["CN(Cc1cc(C(F)(F)F)cc(C(F)(F)F)c1)C(=O)c1c(-c2ccc(C(=O)O)cc2)c2cccnc2c(=O)n1C", "301 to 302 °C"],
  ["Oc1ccc2[nH]cc(C3CCN(CCCCc4c[nH]c5ccccc45)CC3)c2c1", "178 to 180 °C"],
  ["CCOC(=O)C(=O)Cc1cc(Cl)c(Cl)cc1[N+](=O)[O-]", "92 to 94 °C"],
  ["COc1ccc(N(CCCC(=O)N(CCCC(=O)O)c2c(C)cccc2C)C(=O)c2ccc(Cl)cc2)cc1", "131 to 133 °C"],
  ["CCOC(=O)COc1c(C)c(C(=O)c2ccc(C(=O)OC)cc2)n2ccccc12", "84.5 °C"],
  ["Cn1nc(-c2nc(C#Cc3ccccc3)c(N)nc2-c2ccccc2)ccc1=O", "234 to 236 °C"],
  ["CCCCCSc1cc(C(=O)O)cc(S(N)(=O)=O)c1Oc1ccccc1", "180 to 182 °C"],
  ["COc1c(O)cc(C(C)(C)C)c(O)c1C(=O)Nc1ccc(S(=O)(=O)C(F)(F)F)cc1Cl", "171 to 175 °C"],
  ["CCOc1ccc(C=Nc2ccc(S(=O)(=O)NC(C)(C)C)cc2)cc1", "188 °C"],
  ["CC(=O)c1c(C)[nH]c(-c2ccncc2)c1-c1ccncc1", "236 to 239 °C"],
  ["CNC(=O)C#Cc1ccccc1C", "52 to 55 °C"],
  ["O=C(CCCc1c[nH]c2ccccc12)NCc1ccccc1", "132 to 133 °C"],
  ["Cc1ncccc1CC(=NC#N)NC(NC(=O)Cc1ccc(Cl)cc1)C(C)(C)C (stereo unspecified)", "118 to 119 °C"],
  ["CCOP(=O)(CNC(=O)C[C@H]1O[C@H](c2cccc(OC)c2OC)c2cc(Cl)ccc2N(CC(C)(C)CO)C1=O)OCC", "138 to 140 °C"],
  ["CC(NCCO)c1ccccc1 (stereo unspecified)", "60 °C"],
  ["Cc1ccc(S(=O)(=O)Nc2nc(-c3cccc(C#N)c3)cs2)cc1", "> 250 °C"],
  ["COc1ccc(-c2ccc(C(C)=O)cc2)cc1F", "149 to 150 °C"],
  ["Brc1cncc2cccnc12", "79 to 81 °C"],
  ["CC(C)OC(=O)Nc1cccc(-c2ccnc3c(C(=O)c4ccoc4)cnn23)c1", "127 to 129 °C"],
  ["CN(C)c1ccc(/C=C/c2c(F)cccc2F)cc1", "112 to 113 °C"],
  ["CN(C)c1ccc(NC(=O)N(C[C@H]2CC[C@H](CN(C(=O)Nc3ccc(N(C)C)cc3)C3CCCCC3)CC2)C2CCCCC2)cc1", "128 to 131 °C"],
  ["CC(C)(CO[N+](=O)[O-])C(=O)N1C(C(=O)O)CSC1c1ccccc1 (stereo unspecified)", "35 to 38 °C"],
  ["Cc1noc(NS(=O)(=O)c2cc(S(=O)(=O)c3ccccc3)cs2)c1Br", "181 to 184 °C"],
  ["O=c1c2cc([N+](=O)[O-])ccc2cc2n1CCCS2(=O)=O", "242 to 244 °C"],
  ["O=C1NCCCN1CCCN(Cc1ccccc1)CC1CCc2ccccc2O1 (stereo unspecified)", "94.7 °C"]
]}

The measured values listed here are drawn from a melting point compilation (Tetko et al.; mined from patent text by program, amines drawn as free bases though some values may be those of a salt).
